assay_summary: qHTS for Inhibitors of Inflammasome Signaling: IL-1-beta AlphaLISA Primary Screen
measurement_setup: THP-1 LPS/ATP IL-1B secretion, 16 h; at 57.5 µM
The whole screen tested about 360,000 compounds, of which about 17,000 (4.7%) were called active. About 5% were inconclusive and are not listed. No stated cut-off is given here; in the data, active means activity change below about -50%; inconclusive means mostly about -30% to -49%; inactive means weaker than that. The full list was thinned out, with actives kept by preference.
The categories you may choose from are active, inactive

Ask | For this compound, state the assay outcome: `Cc1nn(CC(=O)Nc2ccc(F)cc2)c(=O)c2ccccc12`
Reply | inactive

Ask | For this compound, state the assay outcome: `Cc1cc2c(cc1C)N(Cc1ccccc1)C1=NCCCN12`
Reply | active

Ask | For this compound, state the assay outcome: `O=C(NCc1cccc(C(F)(F)F)c1)c1cccc(S(=O)(=O)N2CCN(Cc3ccccc3)CC2)c1`
Reply | inactive

Ask | For this compound, state the assay outcome: `COc1ccc(NS(=O)(=O)c2ccc(NC(=S)NC(=O)/C=C/c3ccc(C)cc3)cc2)nn1`
Reply | inactive

Ask | For this compound, state the assay outcome: `Cc1ccc2c(C)c(C(=O)N(C)Cc3ccncn3)oc2c1C`
Reply | inactive

Ask | For this compound, state the assay outcome: `CCc1ccc2c(c1)cc(CN(C(=S)Nc1ccccc1Cl)C1CC1)c1nnnn12`
Reply | inactive

Ask | For this compound, state the assay outcome: `COc1ccc(/C=N/NC(=O)CNC(=O)c2ccc(S(=O)(=O)N3CCCC3)cc2)c(OC)c1`
Reply | inactive

Ask | For this compound, state the assay outcome: `COc1ccc(N2c3ccccc3CN(Cc3ccccc3)[C@@H](C)[C@H]2Cc2ccc(-c3ccccc3)cc2)cc1`
Reply | inactive

Ask | For this compound, state the assay outcome: `O=S(=O)(N1CCCCC1)N1CCNCC1`
Reply | inactive

Ask | For this compound, state the assay outcome: `O=C(CSc1nc2cccc(F)c2c(=O)n1-c1ccccc1)Nc1ccc2c(c1)CCC2`
Reply | inactive

Ask | For this compound, state the assay outcome: `COc1ccc(C(=O)NCC(=O)N/N=C/c2ccc([N+](=O)[O-])o2)cc1OC`
Reply | active

Ask | For this compound, state the assay outcome: `Cc1nc2ccccn2c(=O)c1NC(=O)c1ccc(Br)o1`
Reply | inactive

Ask | For this compound, state the assay outcome: CC(NC(=O)CCC(=O)N1CCN(S(=O)(=O)c2ccc(Cl)cc2)CC1)c1ccccc1 (stereo unspecified)
Reply | inactive

Ask | For this compound, state the assay outcome: `CCOC1=C2[C@@H](CN(S(=O)(=O)c3ccc(C)cc3)[C@H]2c2ccccc2F)[C@H]2C(=O)N(Cc3ccccc3)C(=O)[C@H]2C1`
Reply | inactive

Ask | For this compound, state the assay outcome: `COc1cccc(/C=N/NC(=O)CNC(=O)c2ccc(S(=O)(=O)N3CCOCC3)cc2)c1OC`
Reply | inactive

Ask | For this compound, state the assay outcome: `COc1cc(/C=C/C(=O)OCC(=O)Nc2cccc(Oc3ccccc3)c2)ccc1O`
Reply | inactive

Ask | For this compound, state the assay outcome: `O=C(CCC(=O)N1CCN(S(=O)(=O)c2ccc(Cl)cc2)CC1)NCc1cccc(C(F)(F)F)c1`
Reply | active

Ask | For this compound, state the assay outcome: `Cc1ccc(C(=O)/C=C/Nc2ccc(S(=O)(=O)Nc3onc(C)c3C)cc2)cc1`
Reply | inactive

Ask | For this compound, state the assay outcome: `Cc1cc2oc(=O)cc(CN3CCN(Cc4ccccc4)CC3)c2cc1C`
Reply | inactive

Ask | For this compound, state the assay outcome: COCC1CCCCN1C(=O)c1cc(COc2ccc(C)c(C)c2)on1 (stereo unspecified)
Reply | inactive

Ask | For this compound, state the assay outcome: CC1=NC2(CCCc3c2no[n+]3[O-])N(O)C1(C)C (stereo unspecified)
Reply | inactive
